FYI, the data here is from PubChem BioAssay AID1578.

Assay Method Text: NOD1 signaling inhibitors, primary screen, cell-based, luminescence, uHTS (AID 1578);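 also: HEK-293T reporter cells stimulated with the NOD1 agonist gamma-tri-DAP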
Condition Parameters: NOD1-driven NF-kB luciferase reporter cells, at 4 µM, active compounds read high
The whole screen tested about 290,000 compounds, of which about 3,000 (1%) were called active. Many of the other results were omitted from the sample, so actives are more common in it than they were.
// bucketize inhibition: 0: < -10%; 1: ≥ -10% and < 40%; 2: ≥ 40%

Worked cases, answers included:
Band assignment needed for `c1coc(CNc2nc3ccccc3n2CCN2CCOCC2)c1` please.
2

Band assignment needed for `CCOC(=O)N1CCN=C1SCc1ccc(Cl)c(Cl)c1` please.
0

Band assignment needed for `O=C(NCCc1ccc(Cl)cc1)c1ccc2nccnc2c1` please.
0

Band assignment needed for `COc1ccc(C(=O)C[n+]2ccc(N)c(C)c2C)cc1` please.
2

Band assignment needed for `Cc1c(N)cc[n+](CC(=O)c2ccccc2)c1C` please.
1

Next:
Band assignment needed for `COc1ccc(C(=O)C[n+]2ccc3ccccc3c2C)cc1` please.
1

Band assignment needed for O=C(NC1=C(NC2CCS(=O)(=O)C2)C(=O)c2ccccc2C1=O)c1ccccc1 (configuration not stated) please.
2

Band assignment needed for `COc1ccc(-c2nc3ccccc3c(=O)n2NC(=O)Cc2ccccc2)cc1` please.
0

Band assignment needed for `O=C(NCc1ccccc1)c1ccc2nccnc2c1` please.
1

Band assignment needed for `O=C(NCCc1ccccc1)c1ccc2nccnc2c1` please.
2

Band assignment needed for `Cc1sc(NC(=O)c2ccccc2)c(C(=O)c2ccccc2)c1C` please.
1

###

Assay Method Text: NOD1 signaling inhibitors, primary screen, cell-based, luminescence, uHTS (AID 1578);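 also: HEK-293T reporter cells stimulated with the NOD1 agonist gamma-tri-DAP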
Condition Parameters: NOD1-driven NF-kB luciferase reporter cells, at 4 µM, active compounds read high
About 3,000 (1%) of roughly 290,000 compounds were called active. Only a selection was taken, and actives are over-represented in it overall.
The molecules listed here are annotated with their inhibition.
Write the number in % without appending the unit.

Solved entries (count: 4):
The molecule `Cc1cccc(C)c1NC(=O)CCCSc1nnnn1C` showed inhibition equal to -22.8

The molecule `O=C(Nc1ccc(Br)cc1)c1cc(-c2ccc3c(c2)OCO3)on1` showed inhibition equal to -33.8

The molecule `CC1(C)CC(=O)C2=C(C1)OC(N)=C(C#N)[C@@]21C(=O)N(CC(N)=O)c2ccccc21` showed inhibition equal to -14.4

The molecule COc1ccc(-c2noc(N3CCC(C(=O)NCCCN4CC(C)CC(C)C4)CC3)n2)cc1 (stereo not given) showed inhibition equal to -3.9

Please examine the following record next.
The molecule `O=C(Nc1ccc(NS(=O)(=O)c2ccccc2)cc1)c1cccnc1` showed inhibition equal to -23.8

###

Assay Method Text: NOD1 signaling inhibitors, primary screen, cell-based, luminescence, uHTS (AID 1578);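 also: HEK-293T reporter cells stimulated with the NOD1 agonist gamma-tri-DAP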
Condition Parameters: NOD1-driven NF-kB luciferase reporter cells, at 4 µM, active compounds read high
Among all 290,000 compounds or so, about 3,000 (1%) were called active. The entries come from a sample that favours actives as a whole.
# if value of inhibition reaches 30%, tag t; if it stays below, tag f

Worked cases, answers included:
Evaluate COc1ccc2nc(NC3=NC(c4ccccc4)CC(=O)N3)nc(C)c2c1 (stereo unspecified) : inhibition at minimum 30%?
f

Evaluate `CN1CCN(CC2(O)CCN(S(=O)(=O)c3ccc(Cl)cc3)CC2)CC1` : inhibition at minimum 30%?
f

Evaluate `Cc1nsc(Nc2ccc([N+](=O)[O-])cc2)c1C#N` : inhibition at minimum 30%?
t

Evaluate `COc1ccccc1CNC(=O)c1ccccc1OC` : inhibition at minimum 30%?
f

Evaluate `Cc1nc([N+](=O)[O-])c(Br)n1CC(=O)c1ccc(Br)cc1` : inhibition at minimum 30%?
t

Evaluate CC(Sc1nnc(CC(=O)Nc2ccccc2F)n1C)C(=O)Nc1nccs1 (stereo unspecified) : inhibition at minimum 30%?
f

Evaluate `Cc1nc([N+](=O)[O-])c(Br)n1CC(=O)c1ccccc1` : inhibition at minimum 30%?
f

Evaluate `Cc1ccsc1C(=O)OCc1csc(-c2ccccc2)n1` : inhibition at minimum 30%?
f

Next:
Evaluate `O=C(Nc1ccc(S(=O)(=O)N2CCCCCC2)cc1)c1ccc(Br)o1` : inhibition at minimum 30%?
f

Evaluate CC(Oc1ccccc1)C(=O)N=Nc1c(O)[nH]c2ccc(Br)cc12 (stereo unspecified) : inhibition at minimum 30%?
f

Evaluate `Cc1nsc(Nc2ccccc2)c1C#N` : inhibition at minimum 30%?
f

###

Assay Method Text: NOD1 signaling inhibitors, primary screen, cell-based, luminescence, uHTS (AID 1578);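 also: HEK-293T reporter cells stimulated with the NOD1 agonist gamma-tri-DAP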
Condition Parameters: NOD1-driven NF-kB luciferase reporter cells, at 4 µM, active compounds read high
The campaign covered roughly 290,000 compounds. About 3,000 (1%) were called active. Only a selection was taken, and actives are over-represented in it overall.
The molecules listed here are annotated with their inhibition.
Write the number in % without appending the unit.

The molecule COC(=O)CSC1=C(C#N)C(=O)NC(c2ccccc2)S1 (stereo unspecified) showed inhibition equal to 38.8

The molecule CSC1=C(C#N)C(=O)NC(c2ccc(Cl)cc2)S1 (stereo unspecified) showed inhibition equal to 45

The molecule `O=C(CSc1nnnn1-c1ccc2c(c1)OCCO2)Nc1nc2c(s1)CCCC2` showed inhibition equal to 58.5

The molecule CN(C)c1ccc(C2CC(=O)C=C(Nc3ccccc3N)C2)cc1 (stereo unspecified) showed inhibition equal to -11.3

The molecule `COc1cc(OC)cc(-n2nnnc2SCC(=O)Nc2nc3c(s2)CCCC3)c1` showed inhibition equal to -3.7

The molecule `COc1cc2c(cc1OC)CN(CC(=O)Nc1ccc(C)c(S(=O)(=O)N3CCOCC3)c1)CC2` showed inhibition equal to -14.6

###

Assay Method Text: NOD1 signaling inhibitors, primary screen, cell-based, luminescence, uHTS (AID 1578);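 also: HEK-293T reporter cells stimulated with the NOD1 agonist gamma-tri-DAP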
Condition Parameters: NOD1-driven NF-kB luciferase reporter cells, at 4 µM, active compounds read high
Hit rate of the full screen: of about 290,000 compounds, about 3,000 (1%) were called active. The sample as a whole holds a higher share of actives than the screen did.
Property Name: inhibition (%)
Write the number in % without appending the unit.

The compound `CN(C)C(=O)CSc1cccc2cccnc12` showed inhibition equal to 85.5

Next:
The compound `COc1cccc(OCc2cc(C(=O)NCc3ccc4c(c3)OCO4)no2)c1` showed inhibition equal to -60.1

The compound COc1ccc(N(C(=O)Cn2nnc(-c3ccc(F)cc3)n2)C(C)C(=O)NC2CCCC2)cc1OC (stereo not drawn) showed inhibition equal to 10.1

The compound `CN(C)S(=O)(=O)c1cccc(NC(=S)N/N=C/c2cc(Br)ccc2O)c1` showed inhibition equal to -11.2

The compound `CCN(CC)Cc1c(C(=O)N/N=C/c2ccc(OCc3ccccc3C)cc2)nnn1-c1nonc1N` showed inhibition equal to -6.7

The compound `CCCCCCCCNc1ncnc2ccccc12` showed inhibition equal to 54.9

The compound COc1ccc(N(C(=O)Cn2nnc(-c3ccc(F)cc3)n2)C(C)C(=O)NC2CCCC2)cc1 (stereo not drawn) showed inhibition equal to -22.6

###

Assay Method Text: NOD1 signaling inhibitors, primary screen, cell-based, luminescence, uHTS (AID 1578);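 also: HEK-293T reporter cells stimulated with the NOD1 agonist gamma-tri-DAP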
Condition Parameters: NOD1-driven NF-kB luciferase reporter cells, at 4 µM, active compounds read high
In all, about 290,000 compounds went through this assay and about 3,000 (1%) were called active. Only a selection was taken, and actives are over-represented in it overall.
# if value of inhibition reaches 10%, tag T; if it stays below, tag F

Evaluate O=C1c2ccccc2NC(c2cccs2)N1NS(=O)(=O)c1ccccc1 (stereo unspecified) : inhibition at minimum 10%?
F

Evaluate `NC(=O)C1CCN(c2nc(C3CC3)nc3c2nnn3Cc2ccccc2Cl)CC1` : inhibition at minimum 10%?
T

Next:
Evaluate `COc1ccc(OC)c(/C=N\NC(=O)c2c(C)nc3cc(C)ccn23)c1` : inhibition at minimum 10%?
F

Evaluate `COCCNC(=O)Cn1c(=O)n(C)c2ccccc21` : inhibition at minimum 10%?
F

Evaluate `CC1CCN(C(=O)COc2cccc3c2CCN(Cc2ccccc2)C3=O)CC1` : inhibition at minimum 10%?
F

Evaluate `c1cncc(-c2nnc(C3CCCCC3)o2)c1` : inhibition at minimum 10%?
T

###

Assay Method Text: NOD1 signaling inhibitors, primary screen, cell-based, luminescence, uHTS (AID 1578);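 also: HEK-293T reporter cells stimulated with the NOD1 agonist gamma-tri-DAP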
Condition Parameters: NOD1-driven NF-kB luciferase reporter cells, at 4 µM
Among all 290,000 compounds or so, about 3,000 (1%) were called active. Cut-off read from the data, not from the text of the source: active = inhibition mostly above about 36% (no sharp cut-off); inactive = mostly below about 34%. The sample holds actives, similar compounds and a random draw of the others, so the mix is not that of the screen.
Could you please pick one outcome from this set? active, inactive

Please share the test call associated with `Cc1ccc(/C=C/C(=O)Nc2nc3ccccc3[nH]2)cc1` .
inactive

Please share the test call associated with `O=C(CSc1ncnc2[nH]ncc12)Nc1nc(-c2ccc(F)c(F)c2)cs1` .
active

Please share the test call associated with `Cc1oc(-c2ccccc2Cl)nc1CSCC(=O)O` .
inactive

Please share the test call associated with `Cc1sc2ncnc(SCC(=O)Nc3nc(-c4ccc(F)c(F)c4)cs3)c2c1C` .
inactive

Please share the test call associated with COc1ccccc1C1C(C#N)=C(N)N(c2cccnc2)C2=C1C(=O)CC(C)(C)C2 (stereo unspecified) .
inactive

Please share the test call associated with COCCNC(=O)C(c1ccc(OC)cc1)N(Cc1ccco1)C(=O)CCC(=O)Nc1ccccn1 (stereo unspecified) .
inactive

Next:
Please share the test call associated with `O=C(CSc1nnc(NC(=O)C2CC2)s1)NCc1ccc(F)cc1` .
inactive
